assay: AUClast in CD1 mouse at 5 mg/kg, po; type: ADME, organism-based; parameters: time 0 - last, dose 5 mg/kg, route oral; conditions: plasma
In this section, each of the molecules is paired with its reported AUC(0-t).
Value expressed in ng·h/mL; do not type the unit.

| Substance Smiles | AUC(0-t) / ng·h/mL |
| --- | --- |
| N#Cc1c[nH]c(C(=O)Nc2ccc(C3CCN(C(=O)NCCO)CC3)cc2C2=CCCCC2)n1 | 129 |
| CS(=O)(=O)CCN1CCC(c2ccc(NC(=O)c3nc(C#N)c[nH]3)c(C3=CCCCC3)c2)CC1 | 2130 |
| N#Cc1c[nH]c(C(=O)Nc2ccc(C3CCNCC3)cc2C2=CCCCC2)n1.O=C(O)C(F)(F)F | 95.2 |
| CC1CCN(c2cc(N3CCN(C)CC3)ccc2NC(=O)c2ccc(C#N)o2)CC1 | 1160 |
| N#Cc1c[nH]c(C(=O)Nc2ccc(C3CCN(C(=O)Cc4ccncc4)CC3)cc2C2=CCCCC2)n1 | 68 |
| CN(C)CC(=O)N1CCC(c2ccc(NC(=O)c3nc(C#N)c[nH]3)c(C3=CCCCC3)c2)CC1 | 1020 |

Reported AUC(0-t) ( `N#Cc1c[nH]c(C(=O)Nc2ccc(C3CCN(CCN4CCOCC4)CC3)cc2C2=CCCCC2)n1` ) = 1550

# AUC(0-t) (molecule: `N#Cc1c[nH]c(C(=O)Nc2ccc(C3CCN(CC(N)=O)CC3)cc2C2=CCCCC2)n1` ) is 141

For record `CC(=O)N1CCC(c2ccc(NC(=O)c3nc(C#N)c[nH]3)c(C3=CCCCC3)c2)CC1` the listed AUC(0-t) is 454

Given item `CS(=O)(=O)CC(=O)N1CCC(c2ccc(NC(=O)c3nc(C#N)c[nH]3)c(C3=CCCCC3)c2)CC1` , the value recorded as its AUC(0-t) is 125

The molecule `Cn1cnc(CC(=O)N2CCC(c3ccc(NC(=O)c4nc(C#N)c[nH]4)c(C4=CCCCC4)c3)CC2)c1` showed AUC(0-t) equal to 101

----------
Each entry below carries its reported concentration at 8 h.
experiment: Drug uptake in CD1 mouse at 5 mg/kg, po after 8 hrs; format: ADME, organism-based; parameters: dose 5 mg/kg, route oral; conditions: CD1, mouse, in vivo, read-out: Drug uptake
Express the result in ng/mL but write the number alone.

| Substance Smiles | concentration at 8 h (ng/mL) |
| --- | --- |
| CC(=O)N1CCC(c2ccc(NC(=O)c3nc(C#N)c[nH]3)c(C3=CCCCC3)c2)CC1 | 9 |

# ---- query compound ----
Reported concentration at 8 h ( `CC1CCN(c2cc(N3CCN(C)CC3)ccc2NC(=O)c2ccc(C#N)o2)CC1` ) = 64

----------
assay: Metabolic stability in human liver microsomes assessed as compound remaining after 10 mins; format: ADME, Microsome; conditions: read-out: Stability
Please use the following remaining at 10 min ranges when assigning a class: 0: < 70%; 1: ≥ 70% and < 90%; 2: ≥ 90%

[Q] // return the class label for `N#Cc1c[nH]c(C(=O)Nc2ccc(C3CCN(CCO)CC3)cc2C2=CCCCC2)n1`
[A] 2

[Q] Any idea which band `CC(=O)N1CCC(c2ccc(NC(=O)c3nc(C#N)c[nH]3)c(C3=CCCCC3)c2)CC1` is in?
[A] 2

[Q] Class label required: `N#Cc1c[nH]c(C(=O)Nc2ccc(C3CCN(C(=O)Cc4cccnc4)CC3)cc2C2=CCCCC2)n1`
[A] 0

[Q] Category of `N#Cc1c[nH]c(C(=O)Nc2ccc(C3CCN(C(=O)c4cccnc4)CC3)cc2C2=CCCCC2)n1` , please.
[A] 0

[Q] Could you place `Cn1cnc(CC(=O)N2CCC(c3ccc(NC(=O)c4nc(C#N)c[nH]4)c(C4=CCCCC4)c3)CC2)c1` in its proper category? Many thanks.
[A] 1

[Q] Just checking, what class would you give `N#Cc1c[nH]c(C(=O)Nc2ccc(C3CCN(CC(=O)O)CC3)cc2C2=CCCCC2)n1` here?
[A] 2

[Q] Given `CS(=O)(=O)CCN1CCC(c2ccc(NC(=O)c3nc(C#N)c[nH]3)c(C3=CCCCC3)c2)CC1` , name the class its remaining at 10 min places it in.
[A] 2

[Q] Which class does `N#Cc1c[nH]c(C(=O)Nc2ccc(C3CCN(C(=O)CNCCO)CC3)cc2C2=CCCCC2)n1` fall in?
[A] 0

[Q] Place this compound in its band: `N#Cc1c[nH]c(C(=O)Nc2ccc(C3CCN(C(=O)c4ccc[n+]([O-])c4)CC3)cc2C2=CCCCC2)n1`
[A] 2

[Q] Assign a category based on measured remaining at 10 min for `N#Cc1c[nH]c(C(=O)Nc2ccc(C3CCN(C(=O)CN4CCOCC4)CC3)cc2C2=CCCCC2)n1` and give only the class name.
[A] 0

[Q] Into which category would you place `CN(C)CC(=O)N1CCC(c2ccc(NC(=O)c3nc(C#N)c[nH]3)c(C3=CCCCC3)c2)CC1` ?
[A] 1

[Q] Could you tell me which band `N#Cc1c[nH]c(C(=O)Nc2ccc(C3CCN(c4ccccn4)CC3)cc2C2=CCCCC2)n1` belongs to?
[A] 1

[Q] Which of the defined bands does the recorded remaining at 10 min of `N#Cc1c[nH]c(C(=O)Nc2ccc(C3CCN(C(=O)Cc4ccncc4)CC3)cc2C2=CCCCC2)n1` sit within?
[A] 0

[Q] Categorize the following entry: `N#Cc1c[nH]c(C(=O)Nc2ccc(C3CCNCC3)cc2C2=CCCCC2)n1.O=C(O)C(F)(F)F`
[A] 2
